test system: panelists; experiment: Flavor evaluation of ethanol solution (bottle mouth and flavor paper); type: in vivo; conditions: 1% ethanol solution, typical evaluation, 5 panelists
readout.label: Flavor Evaluation

[[record]]
compound = "Cc1ccc(C)c(COCCCc2ccccn2)c1"
experimental_system = "panelists"
readout_label = "Flavor Evaluation"
recorded_measurement = "Rummy"

[[record]]
compound = "Cc1ccc(COCCCc2ccccn2)cc1 [invention product 5, 2-[3-(p-methylbenzyloxy)propyl]pyridine]"
experimental_system = "panelists"
readout_label = "Flavor Evaluation"
recorded_measurement = "Nutty"


###

test system: panelists; test: Confirmation of umami imparting and saltiness enhancing effect in 0.3 mass % sodium chloride (point score); assay type: in vivo; details: 50 ppm in aqueous 0.3 mass % sodium chloride solution; average point of 10 panelists vs control; 0 no change, 1 slightly higher, 2 higher, 3 considerably higher, 4 extremely higher umami and saltiness, 5 bitter as lacking balance
readout.label: umami and saltiness (average point)

[[record]]
compound = "c1ccc(COCCc2ccccn2)cc1 [comparative product 1, 2-(2-benzyloxyethyl)pyridine, reference compound]"
recorded_measurement = 4.8

[[record]]
compound = "c1ccc(CCOCCc2ccccn2)cc1 [invention product 2, 2-(2-phenylethoxyethyl)pyridine]"
recorded_measurement = 5.0

[[record]]
compound = "c1ccc(CCSCCc2ccccn2)cc1 [invention product 4, 2-(2-phenylethylthioethyl)pyridine]"
recorded_measurement = 5.0

[[record]]
compound = "c1ccc(COCCCCc2ccccn2)cc1 [invention product 1, 2-(4-benzyloxybutyl)pyridine]"
recorded_measurement = 4.9


The measurements presented in this section are drawn from patent US10894772B2.
